For each of the compounds below, state its pIC50.
target: Kras and SOS1 (biotin-tagged human Kras loaded with GDP, His-tagged human SOS1) (Homo sapiens, UniProt P01116, G12D); construct: made in house; host or cells: E. coli (stated for Kras only); assay: Protein-protein interaction inhibition between Kras and SOS1 (KrasGl2D-SOS PPI) using AlphaScreen; assay type: binding; details: AlphaScreen; biotin-tagged human Kras loaded with GDP, His-tagged human SOS1; read-out: KRAS G12D-SOS PPI IC50
Sequence (P01116 1-188 isoform P01116-2 G12D): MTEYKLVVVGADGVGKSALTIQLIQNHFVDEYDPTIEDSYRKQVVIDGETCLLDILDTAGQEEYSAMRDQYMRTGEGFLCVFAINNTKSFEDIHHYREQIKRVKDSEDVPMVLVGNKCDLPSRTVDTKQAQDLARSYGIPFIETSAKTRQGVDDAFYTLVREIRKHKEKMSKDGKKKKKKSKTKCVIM
Starred links: 1 amine or outer side, 2 acyl side, 3 side chain; linkers in the order of their positions; H or OH if unused. Positions of bridges follow the written chain, without caps; N, C: chain ends. Non-standard residues stand in square brackets, D forms with d. Residues, ends and D or L forms follow the SMILES beside them. *: point of attachment. hPhe(3-Cl-4-CF3) = N[C@@H](CCc1ccc(C(F)(F)F)c(Cl)c1)C(=O)O; hPhe(3-F,4-CF3) = N[C@@H](CCc1ccc(C(F)(F)F)c(F)c1)C(=O)O; NEtPhe(4-Cl) = CCN[C@@H](Cc1ccc(Cl)cc1)C(=O)O; 3Oxa8azabicyclo(3.2.1)octane = C1CC2COCC1N2*; NMePhe(4-Cl) = CN[C@@H](Cc1ccc(Cl)cc1)C(=O)O; NMePhe(4-Me) = CN[C@@H](Cc1ccc(C)cc1)C(=O)O; NMedβ3hAla = C[C@H](CC(=O)[*:2])N(C)[*:1]; NMeGly(cPent) = CN[C@H](C(=O)O)C1CCCC1; Phe(3-I) = N[C@@H](Cc1cccc(I)c1)C(=O)O; X10 = CC(C)=CC[C@H](N[*:1])C(=O)[*:2]; NMeGly(cBu) = CN[C@H](C(=O)O)C1CCC1; NMeCha = CN[C@@H](CC1CCCCC1)C(=O)O; NMeChg = CN[C@H](C(=O)O)C1CCCCC1; NMeI = CC[C@H](C)[C@H](NC)C(=O)O; NMeD = CN[C@@H](CC(=O)O)C(=O)O; dNMeD = CN[C@H](CC(=O)O)C(=O)O; NMeL = CN[C@@H](CC(C)C)C(=O)O; NMeV = CN[C@H](C(=O)O)C(C)C; d(β3hA) = C[C@@H](N)CC(=O)O; Morpholide = C1CN(*)CCO1; NMeA = CN[C@@H](C)C(=O)O; NMeAib = CNC(C)(C)C(=O)O; Piperidide = C1CCN(*)CC1; Pyrrolidide = C1CCN(*)C1; dNMeA = CN[C@H](C)C(=O)O; Ac5c = NC1(C(=O)O)CCCC1; Aze = O=C(O)[C@@H]1CCN1; Sar = CNCC(=O)O
Give bare numbers, as −log10 of the molar value.

Q: Supply measured pIC50 of CC[C@H](C)[C@@H]1NC(=O)[C@H](C)N(C)C(=O)C[C@@H](C)NC(=O)[C@H](C(C)C)N(C)C(=O)C2(CCCC2)NC(=O)[C@@H]2CCCN2C(=O)[C@H](CCc2ccc(C(F)(F)F)c(Cl)c2)NC(=O)[C@@H](C)N(C)C(=O)[C@H](CC2CCCCC2)N(C)C(=O)[C@@H]2CCN2C(=O)[C@H](CC2CCCCC2)N(C)C1=O [Compound 2015] (cyclo([Ac5c][NMeV][d(β3hA)][NMeA]I[NMeCha][Aze][NMeCha][dNMeA][hPhe(3-Cl-4-CF3)]P)) in your reply.
Result: 6.59

Need pIC50 for each of these compounds.
1. CC[C@H](C)[C@@H]1NC(=O)[C@H](CC(C)C)N(C)C(=O)C[C@@H](C)N(C)C(=O)[C@H](CC(C)C)NC(=O)C(C)(C)N(C)C(=O)[C@H](CC(C)C)NC(=O)[C@H](CCc2ccc(C(F)(F)F)c(Cl)c2)NC(=O)CN(C)C(=O)[C@H](Cc2ccc(C)cc2)N(C)C(=O)[C@@H]2CCN2C(=O)CN(C)C1=O [Compound 1386] (cyclo([Aze][NMePhe(4-Me)][Sar][hPhe(3-Cl-4-CF3)]L[NMeAib]L[NMedβ3hAla][NMeL]I[Sar]))
2. CC[C@H](C)[C@@H]1NC(=O)[C@H](CC(C)C)N(C)C(=O)C[C@H](C(=O)N2CCCC2)N(C)C(=O)[C@H]([C@@H](C)CC)N(C)C(=O)C2(CCCC2)NC(=O)[C@@H]2CCCN2C(=O)[C@H](CCc2ccc(C(F)(F)F)c(Cl)c2)NC(=O)CN(C)C(=O)[C@H](CC2CCCCC2)N(C)C(=O)CN(C)C(=O)CN(C)C1=O [Compound 1814] ([NMeL]I[Sar][Sar][NMeCha][Sar][hPhe(3-Cl-4-CF3)]P[Ac5c][NMeI][dNMeD]-Pyrrolidide; lactam N-11)
3. CC[C@H](C)[C@@H]1NC(=O)[C@H](C2CCC2)N(C)C(=O)C[C@@H](C(=O)N2CCOCC2)N(C)C(=O)[C@H](C2CCCCC2)N(C)C(=O)C2(CCCC2)NC(=O)[C@@H]2CCCN2C(=O)[C@H](CCc2ccc(C(F)(F)F)c(Cl)c2)NC(=O)CN(C)C(=O)[C@H](CC2CCCCC2)N(C)C(=O)CN(C)C(=O)CN(C)C1=O [Compound 890] ([NMeGly(cBu)]I[Sar][Sar][NMeCha][Sar][hPhe(3-Cl-4-CF3)]P[Ac5c][NMeChg][NMeD]-Morpholide; lactam N-11)
4. CC[C@H](C)[C@@H]1NC(=O)[C@H](CC(C)C)N(C)C(=O)C[C@@H](C(=O)N2CCCCC2)N(C)C(=O)[C@H](CC(C)C)N(C)C(=O)C2(CCCC2)NC(=O)[C@@H]2CCCN2C(=O)[C@H](CCc2ccc(C(F)(F)F)c(F)c2)NC(=O)CN(C)C(=O)[C@H](Cc2ccc(Cl)cc2)N(CC)C(=O)CN(C)C(=O)CN(C)C1=O [Compound 328] ([NMeL]I[Sar][Sar][NEtPhe(4-Cl)][Sar][hPhe(3-F,4-CF3)]P[Ac5c][NMeL][NMeD]-Piperidide; lactam N-11)
5. CC[C@H](C)[C@@H]1NC(=O)[C@H](CC(C)C)N(C)C(=O)C[C@@H](C)N(C)C(=O)[C@H](CC(C)C)NC(=O)C(C)(C)N(C)C(=O)[C@H](CC=C(C)C)NC(=O)[C@H](Cc2cccc(I)c2)NC(=O)CN(C)C(=O)[C@H](Cc2ccc(Cl)cc2)N(C)C(=O)[C@@H]2CCN2C(=O)CN(C)C1=O [Compound 1408] (cyclo([Aze][NMePhe(4-Cl)][Sar][Phe(3-I)][X10][NMeAib]L[NMedβ3hAla][NMeL]I[Sar]))
6. CC[C@H](C)[C@@H]1NC(=O)[C@H](CC(C)C)N(C)C(=O)C[C@@H](C(=O)N2C3CCC2COC3)N(C)C(=O)[C@H](C2CCCCC2)N(C)C(=O)C2(CCCC2)NC(=O)[C@@H]2CCCN2C(=O)[C@H](CCc2ccc(C(F)(F)F)c(F)c2)NC(=O)CN(C)C(=O)[C@H](CC2CCCCC2)N(C)C(=O)CN(C)C(=O)CN(C)C1=O [Compound 1957] ([NMeL]I[Sar][Sar][NMeCha][Sar][hPhe(3-F,4-CF3)]P[Ac5c][NMeChg][NMeD]-{3Oxa8azabicyclo(3.2.1)octane}; lactam N-11)
7. CC(C)C[C@H]1C(=O)N[C@@H](CO)C(=O)N(C)[C@@H](C)C(=O)N2CC[C@H]2C(=O)N(C)[C@@H](CC2CCCCC2)C(=O)N(C)CC(=O)N[C@@H](CCc2ccc(C(F)(F)F)c(Cl)c2)C(=O)N2CCC[C@H]2C(=O)NC2(CCCC2)C(=O)N(C)[C@@H](C(C)C)C(=O)N(C)[C@H](C(=O)N2CCCCC2)CC(=O)N1C [Compound 1768] ([NMeL]S[NMeA][Aze][NMeCha][Sar][hPhe(3-Cl-4-CF3)]P[Ac5c][NMeV][NMeD]-Piperidide; lactam N-11)

Result:
8.00
6.77
9.33
7.03
6.80
8.92
6.85

Q: Supply measured pIC50 of CC[C@H](C)[C@@H]1NC(=O)[C@H](C)N(C)C(=O)C[C@@H](C)NC(=O)[C@H](C2CCCC2)N(C)C(=O)C2(CCCC2)NC(=O)[C@@H]2CCCN2C(=O)[C@H](CCc2ccc(C(F)(F)F)c(Cl)c2)NC(=O)[C@@H](C)N(C)C(=O)[C@H](Cc2ccc(Cl)cc2)N(C)C(=O)CN(C)C(=O)CN(C)C1=O [Compound 1065] (cyclo([Ac5c][NMeGly(cPent)][d(β3hA)][NMeA]I[Sar][Sar][NMePhe(4-Cl)][dNMeA][hPhe(3-Cl-4-CF3)]P)) in your reply.
Result: 7.15
